- Test system: Enterobacter cloacae
- runDescription: Inhibition of RND efflux pump in Enterobacter cloacae isolate 117029 assessed as potentiation of minocycline-induced antibacterial activity at 8 ug/ml after 18 to 24 hrs by microbroth dilution assay
fractional inhibitory concentration index (FICI): recorded values
measuredQuantity: fractional inhibitory concentration index (FICI)

>>> endpointvalue("NC[C@@H]1CN[C@@H](C(=O)N[C@H](CCc2ccccc2)C(=O)Nc2ccc3ccccc3c2)C1")
0.13
>>> endpointvalue("Cl.Cl.Cl.Cl.Cl.Cl.Cl.NC[C@H]1O[C@H](O[C@H]2[C@H](OCCCCCCCCCCCCN3CCN(Cc4cccc5ccccc45)CC3)[C@@H](O[C@H]3O[C@H](CO)[C@@H](O)[C@H](N)[C@H]3O)[C@H](N)C[C@@H]2N)[C@H](N)C[C@@H]1O")
"0.03 to 0.16"
>>> endpointvalue("Cl.Cl.Cl.Cl.Cl.Cl.NC[C@H]1O[C@H](O[C@H]2[C@H](OCCCCCCCCCCCCN3CC[C@@H](c4ccc(F)cc4)[C@H](COc4ccc5c(c4)OCO5)C3)[C@@H](O[C@H]3O[C@H](CO)[C@@H](O)[C@H](N)[C@H]3O)[C@H](N)C[C@@H]2N)[C@H](N)C[C@@H]1O")
"0.02 to 0.14"

###

fractional inhibitory concentration index (FICI): recorded values
- System: Klebsiella pneumoniae
- runDescription: Inhibition of RND efflux pump in Klebsiella pneumoniae isolate 116381 assessed as potentiation of minocycline-induced antibacterial activity at 8 ug/ml after 18 to 24 hrs by microbroth dilution assay
measuredQuantity: fractional inhibitory concentration index (FICI)

>>> endpointvalue("Cl.Cl.Cl.Cl.Cl.Cl.NC[C@H]1O[C@H](O[C@H]2[C@H](OCCCCCCCCCCCCN3CC[C@@H](c4ccc(F)cc4)[C@H](COc4ccc5c(c4)OCO5)C3)[C@@H](O[C@H]3O[C@H](CO)[C@@H](O)[C@H](N)[C@H]3O)[C@H](N)C[C@@H]2N)[C@H](N)C[C@@H]1O")
"0.25 to 0.38"
>>> endpointvalue("NC[C@H]1C[C@H](C(=O)N[C@H](CCc2ccccc2)C(=O)Nc2ccc3ccccc3c2)N(CCCCCCCCCCCCO[C@@H]2[C@@H](O[C@H]3O[C@H](CO)[C@@H](O)[C@H](N)[C@H]3O)[C@H](N)C[C@H](N)[C@H]2O[C@H]2O[C@H](CN)[C@@H](O)C[C@H]2N)C1")
"0.03 to 0.16"
>>> endpointvalue("NC[C@@H]1CN[C@@H](C(=O)N[C@H](CCc2ccccc2)C(=O)Nc2ccc3ccccc3c2)C1")
0.06
>>> endpointvalue("c1ccc2c(CN3CCNCC3)cccc2c1")
"0.25 to 0.38"
>>> endpointvalue("Fc1ccc([C@@H]2CCNC[C@H]2COc2ccc3c(c2)OCO3)cc1 [PAROXETINE]")
0.63
>>> endpointvalue("Cl.Cl.Cl.Cl.Cl.Cl.Cl.NC[C@H]1O[C@H](O[C@H]2[C@H](OCCCCCCCCCCCCN3CCN(Cc4cccc5ccccc45)CC3)[C@@H](O[C@H]3O[C@H](CO)[C@@H](O)[C@H](N)[C@H]3O)[C@H](N)C[C@@H]2N)[C@H](N)C[C@@H]1O")
"0.13 to 0.38"

###

- System: Pseudomonas aeruginosa PAO1
- runDescription: Inhibition of RND efflux pump in Pseudomonas aeruginosa PAO1 assessed as potentiation of minocycline-induced antibacterial activity by measuring minocycline MIC at 8 ug/ml after 18 to 24 hrs by microbroth dilution assay (reference value: 8 ug/ml)
measuredQuantity: MIC (µg/mL)

>>> endpointvalue("Cl.Cl.Cl.Cl.Cl.Cl.Cl.NC[C@H]1O[C@H](O[C@H]2[C@H](OCCCCN3CCN(Cc4cccc5ccccc45)CC3)[C@@H](O[C@H]3O[C@H](CO)[C@@H](O)[C@H](N)[C@H]3O)[C@H](N)C[C@@H]2N)[C@H](N)C[C@@H]1O")
4
>>> endpointvalue("Fc1ccc([C@@H]2CCNC[C@H]2COc2ccc3c(c2)OCO3)cc1")
8
>>> endpointvalue("NC[C@H]1C[C@H](C(=O)N[C@H](CCc2ccccc2)C(=O)Nc2ccc3ccccc3c2)N(CCCCCCCCCCCCO[C@@H]2[C@@H](O[C@H]3O[C@H](CO)[C@@H](O)[C@H](N)[C@H]3O)[C@H](N)C[C@H](N)[C@H]2O[C@H]2O[C@H](CN)[C@@H](O)C[C@H]2N)C1")
0.12

###

- runDescription: Cytotoxicity against human DU145 cells assessed as reduction in cell viability after 24 hrs by MTS assay
- Type: cell-based, DU-145
measuredQuantity: CC50 at 24 h

>>> endpointvalue("NC[C@H]1C[C@H](C(=O)N[C@H](CCc2ccccc2)C(=O)Nc2ccc3ccccc3c2)N(CCCCCCCCCCCCO[C@@H]2[C@@H](O[C@H]3O[C@H](CO)[C@@H](O)[C@H](N)[C@H]3O)[C@H](N)C[C@H](N)[C@H]2O[C@H]2O[C@H](CN)[C@@H](O)C[C@H]2N)C1")
"> 30 µM"
